Source: paper PMC9838217

Exercise: for every item that follows, state its recorded binding signal.
Molecular target: SALL4 ZFC4 R900W (HT-SELEX) (Mus musculus, UniProt Q8BX22 870-940, R900W)
Sequence: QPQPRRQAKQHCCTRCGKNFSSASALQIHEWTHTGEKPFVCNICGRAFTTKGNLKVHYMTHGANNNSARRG
Experiment: HT-SELEX; high values mean tight binding
Settings: protein: recombinant; vector His6-GST; dsDNA, one strand shown
Output spec: scalar in fold-change vs cycle 0, unitless text.

binding signal value, target or system SALL4 ZFC4 R900W (HT-SELEX) (Mus musculus, UniProt Q8BX22 870-940, R900W), for ACCCAG : 0.526

binding signal value, target or system SALL4 ZFC4 R900W (HT-SELEX) (Mus musculus, UniProt Q8BX22 870-940, R900W), for CATTGC : 0.712

binding signal value, target or system SALL4 ZFC4 R900W (HT-SELEX) (Mus musculus, UniProt Q8BX22 870-940, R900W), for AGAGGG : 0.556

binding signal value, target or system SALL4 ZFC4 R900W (HT-SELEX) (Mus musculus, UniProt Q8BX22 870-940, R900W), for AGGAAA : 1.43

binding signal value, target or system SALL4 ZFC4 R900W (HT-SELEX) (Mus musculus, UniProt Q8BX22 870-940, R900W), for ATCGCA : 0.522

binding signal value, target or system SALL4 ZFC4 R900W (HT-SELEX) (Mus musculus, UniProt Q8BX22 870-940, R900W), for TACCGA : 0.749

binding signal value, target or system SALL4 ZFC4 R900W (HT-SELEX) (Mus musculus, UniProt Q8BX22 870-940, R900W), for GGGACC : 0.257

binding signal value, target or system SALL4 ZFC4 R900W (HT-SELEX) (Mus musculus, UniProt Q8BX22 870-940, R900W), for ACACCC : 0.506

binding signal value, target or system SALL4 ZFC4 R900W (HT-SELEX) (Mus musculus, UniProt Q8BX22 870-940, R900W), for AATGGC : 0.534

binding signal value, target or system SALL4 ZFC4 R900W (HT-SELEX) (Mus musculus, UniProt Q8BX22 870-940, R900W), for AGTTAT : 2.13

binding signal value, target or system SALL4 ZFC4 R900W (HT-SELEX) (Mus musculus, UniProt Q8BX22 870-940, R900W), for AAGAAC : 1.49

binding signal value, target or system SALL4 ZFC4 R900W (HT-SELEX) (Mus musculus, UniProt Q8BX22 870-940, R900W), for GTCTAA : 1.28

binding signal value, target or system SALL4 ZFC4 R900W (HT-SELEX) (Mus musculus, UniProt Q8BX22 870-940, R900W), for CAATTC : 1.29

binding signal value, target or system SALL4 ZFC4 R900W (HT-SELEX) (Mus musculus, UniProt Q8BX22 870-940, R900W), for ACGGCC : 0.0993

binding signal value, target or system SALL4 ZFC4 R900W (HT-SELEX) (Mus musculus, UniProt Q8BX22 870-940, R900W), for CGCCAC : 0.103

binding signal value, target or system SALL4 ZFC4 R900W (HT-SELEX) (Mus musculus, UniProt Q8BX22 870-940, R900W), for ACTACC : 0.948

binding signal value, target or system SALL4 ZFC4 R900W (HT-SELEX) (Mus musculus, UniProt Q8BX22 870-940, R900W), for AGTAGC : 0.756

binding signal value, target or system SALL4 ZFC4 R900W (HT-SELEX) (Mus musculus, UniProt Q8BX22 870-940, R900W), for GATGCA : 0.75

binding signal value, target or system SALL4 ZFC4 R900W (HT-SELEX) (Mus musculus, UniProt Q8BX22 870-940, R900W), for ATCCCG : 0.483

binding signal value, target or system SALL4 ZFC4 R900W (HT-SELEX) (Mus musculus, UniProt Q8BX22 870-940, R900W), for GAACAA : 1.32

binding signal value, target or system SALL4 ZFC4 R900W (HT-SELEX) (Mus musculus, UniProt Q8BX22 870-940, R900W), for CCGACG : 0.143

binding signal value, target or system SALL4 ZFC4 R900W (HT-SELEX) (Mus musculus, UniProt Q8BX22 870-940, R900W), for GCCATA : 0.556

binding signal value, target or system SALL4 ZFC4 R900W (HT-SELEX) (Mus musculus, UniProt Q8BX22 870-940, R900W), for GGATGA : 1.01

binding signal value, target or system SALL4 ZFC4 R900W (HT-SELEX) (Mus musculus, UniProt Q8BX22 870-940, R900W), for AACAGA : 1.41

binding signal value, target or system SALL4 ZFC4 R900W (HT-SELEX) (Mus musculus, UniProt Q8BX22 870-940, R900W), for ATTTTG : 1.5

binding signal value, target or system SALL4 ZFC4 R900W (HT-SELEX) (Mus musculus, UniProt Q8BX22 870-940, R900W), for ACCTAC : 0.908

binding signal value, target or system SALL4 ZFC4 R900W (HT-SELEX) (Mus musculus, UniProt Q8BX22 870-940, R900W), for CCCTCC : 0.362

binding signal value, target or system SALL4 ZFC4 R900W (HT-SELEX) (Mus musculus, UniProt Q8BX22 870-940, R900W), for TCACAA : 1.32

binding signal value, target or system SALL4 ZFC4 R900W (HT-SELEX) (Mus musculus, UniProt Q8BX22 870-940, R900W), for GTGTGA : 0.881

binding signal value, target or system SALL4 ZFC4 R900W (HT-SELEX) (Mus musculus, UniProt Q8BX22 870-940, R900W), for CAGGGG : 0.308

binding signal value, target or system SALL4 ZFC4 R900W (HT-SELEX) (Mus musculus, UniProt Q8BX22 870-940, R900W), for GCAAGC : 0.302

binding signal value, target or system SALL4 ZFC4 R900W (HT-SELEX) (Mus musculus, UniProt Q8BX22 870-940, R900W), for AGTTGC : 0.664

binding signal value, target or system SALL4 ZFC4 R900W (HT-SELEX) (Mus musculus, UniProt Q8BX22 870-940, R900W), for TCCCCA : 0.533

binding signal value, target or system SALL4 ZFC4 R900W (HT-SELEX) (Mus musculus, UniProt Q8BX22 870-940, R900W), for AGCGAG : 0.393

binding signal value, target or system SALL4 ZFC4 R900W (HT-SELEX) (Mus musculus, UniProt Q8BX22 870-940, R900W), for CTGTGC : 0.34

binding signal value, target or system SALL4 ZFC4 R900W (HT-SELEX) (Mus musculus, UniProt Q8BX22 870-940, R900W), for ATAAGG : 1.63

binding signal value, target or system SALL4 ZFC4 R900W (HT-SELEX) (Mus musculus, UniProt Q8BX22 870-940, R900W), for AGGTGG : 0.556

binding signal value, target or system SALL4 ZFC4 R900W (HT-SELEX) (Mus musculus, UniProt Q8BX22 870-940, R900W), for ATTTCG : 0.985

binding signal value, target or system SALL4 ZFC4 R900W (HT-SELEX) (Mus musculus, UniProt Q8BX22 870-940, R900W), for CGATAG : 0.774

binding signal value, target or system SALL4 ZFC4 R900W (HT-SELEX) (Mus musculus, UniProt Q8BX22 870-940, R900W), for CTCCAA : 0.878

binding signal value, target or system SALL4 ZFC4 R900W (HT-SELEX) (Mus musculus, UniProt Q8BX22 870-940, R900W), for CGACAA : 0.523

binding signal value, target or system SALL4 ZFC4 R900W (HT-SELEX) (Mus musculus, UniProt Q8BX22 870-940, R900W), for ATCGTC : 0.755
